The compounds listed here are annotated with their inhibition at 1 µM.
# TEST_SYSTEM: Cdc7/Dbf4 complex (Homo sapiens, UniProt O00311)
# Construct: Full-length Cdc7 co-expressed with full-length Dbf4; purchased Carna Biosciences (Kobe)
# Sequence (O00311 whole entry): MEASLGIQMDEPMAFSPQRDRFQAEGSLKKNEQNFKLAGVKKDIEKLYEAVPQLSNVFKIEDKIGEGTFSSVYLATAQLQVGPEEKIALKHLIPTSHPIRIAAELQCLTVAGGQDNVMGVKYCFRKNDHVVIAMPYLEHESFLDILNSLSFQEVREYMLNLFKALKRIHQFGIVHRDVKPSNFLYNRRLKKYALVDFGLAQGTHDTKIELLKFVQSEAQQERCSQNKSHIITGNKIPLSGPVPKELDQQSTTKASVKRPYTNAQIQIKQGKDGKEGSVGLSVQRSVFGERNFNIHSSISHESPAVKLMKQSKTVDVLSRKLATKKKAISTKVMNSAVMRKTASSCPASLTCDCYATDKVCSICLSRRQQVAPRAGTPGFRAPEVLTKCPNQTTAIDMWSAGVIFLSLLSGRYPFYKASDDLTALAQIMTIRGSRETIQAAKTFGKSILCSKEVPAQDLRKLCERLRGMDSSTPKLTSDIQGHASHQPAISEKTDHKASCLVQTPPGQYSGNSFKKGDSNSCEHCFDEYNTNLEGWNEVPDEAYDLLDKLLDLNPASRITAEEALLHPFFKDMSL
# Sequence (Q9UBU7 whole entry partner): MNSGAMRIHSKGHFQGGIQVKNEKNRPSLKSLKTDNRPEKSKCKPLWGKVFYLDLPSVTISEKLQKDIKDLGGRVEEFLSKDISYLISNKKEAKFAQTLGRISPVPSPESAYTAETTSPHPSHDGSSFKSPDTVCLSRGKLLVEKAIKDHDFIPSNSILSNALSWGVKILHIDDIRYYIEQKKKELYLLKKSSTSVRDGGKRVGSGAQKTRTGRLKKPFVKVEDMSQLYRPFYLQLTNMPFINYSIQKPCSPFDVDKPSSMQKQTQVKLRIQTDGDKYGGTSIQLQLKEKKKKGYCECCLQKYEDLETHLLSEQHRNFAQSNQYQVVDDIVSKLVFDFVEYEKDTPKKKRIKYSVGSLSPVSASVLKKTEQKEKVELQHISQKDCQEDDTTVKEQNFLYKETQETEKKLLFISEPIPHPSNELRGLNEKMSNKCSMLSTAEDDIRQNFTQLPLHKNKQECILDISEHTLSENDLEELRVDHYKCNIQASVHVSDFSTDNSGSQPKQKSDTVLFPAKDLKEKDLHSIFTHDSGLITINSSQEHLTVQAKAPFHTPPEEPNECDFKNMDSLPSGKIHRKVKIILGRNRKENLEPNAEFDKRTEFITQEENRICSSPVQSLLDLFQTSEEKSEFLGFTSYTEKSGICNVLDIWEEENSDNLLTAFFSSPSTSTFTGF
# ASSAY_INFO: Measurement of Cdc7 kinase inhibitory activity (Transcreener ADP HTRF assay)
# Assay type: biochemical
# CONDITION_SET: read-out: inhibitory rate (%) at 1 μM
# Method: Full-length Cdc7 co-expressed with full-length Dbf4 was purchased from Carna Biosciences (Kobe). The enzyme activity of Cdc7/Dbf4 complex was detected by homogeneous time-resolved fluorescence method Transcreener ADP assay (Cisbio Inc., MA, U.S.A.). […] Free ADP produced by ATP hydrolysis was detected by Eu^3+-Cryptate-labeled anti-ADP monoclonal antibody competitively with d2-labeled ADP, and the production amount thereof was measured. […]
Counter-ions that a name gives are not always drawn.
READOUT_NAME: inhibition at 1 µM (%)

compound="Cc1[nH]ncc1-c1cc2nc(C34CC(CN3)C4)[nH]c(=O)c2s1 [Example 148, hydrochloride]" readout_name="inhibition at 1 µM" endpoint_value=102
compound="Cc1[nH]ncc1-c1cc2nc([C@H]3NCC[C@@H]3C)[nH]c(=O)c2s1 [Example 140, dihydrochloride]" readout_name="inhibition at 1 µM" endpoint_value=100
compound=Cc1[nH]ncc1-c1cc2nc([C@@H]3CCN3)[nH]c(=O)c2s1 readout_name="inhibition at 1 µM" endpoint_value=108
compound="Cc1[nH]ncc1-c1cc2nc(C3CCCCCN3)[nH]c(=O)c2s1 (stereo not drawn)" readout_name="inhibition at 1 µM" endpoint_value=93.3
compound=Cc1[nH]ncc1-c1cc2nc([C@@H]3CCC(C)(C)N3)[nH]c(=O)c2s1 readout_name="inhibition at 1 µM" endpoint_value=106
compound=Cc1[nH]ncc1-c1cc2nc([C@H]3CCCCCN3)[nH]c(=O)c2s1 readout_name="inhibition at 1 µM" endpoint_value=96.2
compound=Cc1[nH]ncc1-c1cc2nc([C@@H]3CCCCCN3)[nH]c(=O)c2s1 readout_name="inhibition at 1 µM" endpoint_value=95.9
compound="Cc1[nH]ncc1-c1cc2nc([C@@H]3C[C@H](C)CN3)[nH]c(=O)c2s1 [Example 92, dihydrochloride]" readout_name="inhibition at 1 µM" endpoint_value=108
compound="Cc1[nH]ncc1-c1cc2nc([C@@H]3CCCN3C)[nH]c(=O)c2s1 [Example 88, dihydrochloride]" readout_name="inhibition at 1 µM" endpoint_value=101

* * *

The compounds listed here are annotated with their inhibition at 1 µM.
# TEST_SYSTEM: Cdc7/Dbf4 complex (Homo sapiens)
# Construct: Full-length Cdc7 co-expressed with full-length Dbf4; purchased Carna Biosciences (Kobe)
# ASSAY_INFO: Measurement of Cdc7 kinase inhibitory activity (Transcreener ADP HTRF assay)
# Format: biochemical
# CONDITION_SET: test compound 1 μM; Cdc7/Dbf4, 1.0 μm ATP, 10 μg/ml MCM2; read-out: inhibitory rate (%) at 1 μM
Where a name gives a salt, the structure may show the parent alone.
READOUT_NAME: inhibition at 1 µM

compound="Cc1[nH]ncc1-c1cc2nc([C@H]3NC[C@H]4C[C@H]43)[nH]c(=O)c2s1 [Example 113, dihydrochloride]" test_system="Cdc7/Dbf4 complex (Homo sapiens)" endpoint_value=124%
compound=Cc1[nH]ncc1-c1cc2nc(-c3ccccc3Cl)[nH]c(=O)c2s1 test_system="Cdc7/Dbf4 complex (Homo sapiens)" endpoint_value=97%
compound="Cc1[nH]ncc1-c1cc2nc(C3COCCN3)[nH]c(=O)c2s1 (stereo not shown) [Example 72, dihydrochloride]" test_system="Cdc7/Dbf4 complex (Homo sapiens)" endpoint_value=102%
compound="Cc1[nH]ncc1-c1cc2nc(C3CCCC3N)[nH]c(=O)c2s1 (stereo not shown) [Example 139, dihydrochloride]" test_system="Cdc7/Dbf4 complex (Homo sapiens)" endpoint_value=106%
compound="Cc1[nH]ncc1-c1cc2nc([C@H]3CCCC[C@@H]3N)[nH]c(=O)c2s1 (relative stereo) [Example 129, dihydrochloride]" test_system="Cdc7/Dbf4 complex (Homo sapiens)" endpoint_value=108%
compound="O=c1[nH]c(C23CC(CN2)C3)nc2cc(-c3cn[nH]c3C(F)(F)F)sc12 [Example 165, dihydrochloride]" test_system="Cdc7/Dbf4 complex (Homo sapiens)" endpoint_value=105%
compound="Cc1[nH]ncc1-c1cc2nc([C@@H]3NC[C@@H]4C[C@@H]43)[nH]c(=O)c2s1 [Example 112, dihydrochloride]" test_system="Cdc7/Dbf4 complex (Homo sapiens)" endpoint_value=105%

* * *

# TEST_SYSTEM: Cdc7/Dbf4 complex (Homo sapiens, UniProt O00311)
# Construct: Full-length Cdc7 co-expressed with full-length Dbf4; purchased Carna Biosciences (Kobe)
# ASSAY_INFO: Measurement of Cdc7 kinase inhibitory activity (Transcreener ADP HTRF assay)
# Format: biochemical
# CONDITION_SET: read-out: inhibitory rate (%) at 1 μM, test compound 1 μM; Cdc7/Dbf4, 1.0 μm ATP, 10 μg/ml MCM2
Where a name gives a salt, the structure may show the parent alone.
READOUT_NAME: inhibition at 1 µM (%)

molecule="Cc1[nH]ncc1-c1cc2nc([C@]3(C)CCCN3)[nH]c(=O)c2s1 [Example 103, dihydrochloride]" test_system="Cdc7/Dbf4 complex (Homo sapiens, UniProt O00311)" endpoint_value=96.7
molecule=Cc1[nH]ncc1-c1cc2nc(CN3CCCC3)[nH]c(=O)c2s1 test_system="Cdc7/Dbf4 complex (Homo sapiens, UniProt O00311)" endpoint_value=93.8
molecule="Cc1[nH]ncc1-c1cc2nc([C@@H]3CC=CCN3)[nH]c(=O)c2s1 [Example 145, dihydrochloride]" test_system="Cdc7/Dbf4 complex (Homo sapiens, UniProt O00311)" endpoint_value=126
molecule="Cc1[nH]ncc1-c1cc2nc(C3CCCCN3)[nH]c(=O)c2s1 (centres unmarked) [Example 71, dihydrochloride]" test_system="Cdc7/Dbf4 complex (Homo sapiens, UniProt O00311)" endpoint_value=109
molecule="O=c1[nH]c([C@@H]2CCCCN2)nc2cc(-c3cn[nH]c3C(F)(F)F)sc12 [Example 161, hydrochloride]" test_system="Cdc7/Dbf4 complex (Homo sapiens, UniProt O00311)" endpoint_value=102
molecule="Cc1[nH]ncc1-c1cc2nc([C@H]3CC=CCN3)[nH]c(=O)c2s1 [Example 146, dihydrochloride]" test_system="Cdc7/Dbf4 complex (Homo sapiens, UniProt O00311)" endpoint_value=108
molecule="Cc1[nH]ncc1-c1cc2nc(C34CCC(CC3)N4)[nH]c(=O)c2s1 [Example 116, monohydrochloride]" test_system="Cdc7/Dbf4 complex (Homo sapiens, UniProt O00311)" endpoint_value=102
molecule="Cc1[nH]ncc1-c1cc2nc([C@@H]3CCCN3)[nH]c(=O)c2s1 [Example 11, monotrifluoroacetate]" test_system="Cdc7/Dbf4 complex (Homo sapiens, UniProt O00311)" endpoint_value=103
molecule="Cc1[nH]ncc1-c1cc2nc(C3(C)CCCN3)[nH]c(=O)c2s1 (centres unmarked) [Example 82, dihydrochloride]" test_system="Cdc7/Dbf4 complex (Homo sapiens, UniProt O00311)" endpoint_value=105
molecule="Cc1[nH]ncc1-c1cc2nc(C3CC=CCN3)[nH]c(=O)c2s1 (centres unmarked) [Example 136, dihydrochloride]" test_system="Cdc7/Dbf4 complex (Homo sapiens, UniProt O00311)" endpoint_value=91
molecule="Cc1[nH]ncc1-c1cc2nc([C@H]3CCCCN3)[nH]c(=O)c2s1 [Example 85, dihydrochloride]" test_system="Cdc7/Dbf4 complex (Homo sapiens, UniProt O00311)" endpoint_value=103

* * *

# TEST_SYSTEM: Cdc7/Dbf4 complex (Homo sapiens, UniProt O00311)
# Construct: Full-length Cdc7 co-expressed with full-length Dbf4; purchased Carna Biosciences (Kobe)
# ASSAY_INFO: Measurement of Cdc7 kinase inhibitory activity (Transcreener ADP HTRF assay)
# Format: biochemical
# CONDITION_SET: test compound 1 μM; Cdc7/Dbf4, 1.0 μm ATP, 10 μg/ml MCM2; read-out: inhibitory rate (%) at 1 μM
Structures can show the parent of a compound that is named as a salt.
READOUT_NAME: inhibition at 1 µM (%)

molecule="Cc1[nH]ncc1-c1cc2nc([C@@H]3CC4CCN3CC4)[nH]c(=O)c2s1 [Example 170, trifluoroacetate]" unit_name=% endpoint_value=95
molecule="Cc1[nH]ncc1-c1cc2nc([C@H]3NC[C@@H]4C[C@@H]43)[nH]c(=O)c2s1 (relative stereo) [Example 110, dihydrochloride]" unit_name=% endpoint_value=100
molecule="CCc1[nH]ncc1-c1cc2nc([C@@H]3CCCCN3)[nH]c(=O)c2s1 [Example 162, dihydrochloride]" unit_name=% endpoint_value=104

* * *

# TEST_SYSTEM: Cdc7/Dbf4 complex (Homo sapiens, UniProt O00311)
# Construct: Full-length Cdc7 co-expressed with full-length Dbf4; purchased Carna Biosciences (Kobe)
# ASSAY_INFO: Measurement of Cdc7 kinase inhibitory activity (Transcreener ADP HTRF assay)
# Assay type: biochemical
# CONDITION_SET: test compound 1 μM; Cdc7/Dbf4, 1.0 μm ATP, 10 μg/ml MCM2; read-out: inhibitory rate (%) at 1 μM
Where a name gives a salt, the structure may show the parent alone.
The compounds listed here are annotated with their inhibition at 1 µM.
READOUT_NAME: inhibition at 1 µM (%)

compound="O=c1[nH]c(CN2CCCC2)nc2cc(-c3cn[nH]c3C(F)(F)F)sc12 [Example 143]" endpoint_value=122
compound="Cc1[nH]ncc1-c1cc2nc(C(C)(C)N)[nH]c(=O)c2s1 [Example 135, dihydrochloride]" endpoint_value=111
compound="Cc1[nH]ncc1-c1cc2nc([C@H]3NC4CC3[C@H](F)C4)[nH]c(=O)c2s1 (single isomer, unassigned) [Example 160, dihydrochloride]" endpoint_value=104
compound="Cc1[nH]ncc1-c1cc2nc([C@H]3NC4CCC3CC4)[nH]c(=O)c2s1 [Example 108, dihydrochloride]" endpoint_value=103
compound="Cc1[nH]ncc1-c1cc2nc(C3CCCC3N)[nH]c(=O)c2s1 (single isomer, unassigned) [Example 137, dihydrochloride]" endpoint_value=97
compound="Cc1[nH]ncc1-c1cc2nc(C3C[C@@H]4CCC[C@@H]4N3)[nH]c(=O)c2s1 (stereo partly shown) [Example 123]" endpoint_value=97
compound="Cc1[nH]ncc1-c1cc2nc([C@H]3N[C@@H]4CC[C@H]3C4)[nH]c(=O)c2s1 [Example 91]" endpoint_value=106

Data origin: patent US9388195B2
